Entries annotated with measured Dmax
Molecular target: wildtype LRRK2 (Homo sapiens, UniProt Q5S007)
Construct: expressed in transfected cells; host or cells: HEK293 (ATCC CRL-1573), transient transfection, mammalian expression vector with ubiquitin promoter
Sequence (Q5S007 whole entry): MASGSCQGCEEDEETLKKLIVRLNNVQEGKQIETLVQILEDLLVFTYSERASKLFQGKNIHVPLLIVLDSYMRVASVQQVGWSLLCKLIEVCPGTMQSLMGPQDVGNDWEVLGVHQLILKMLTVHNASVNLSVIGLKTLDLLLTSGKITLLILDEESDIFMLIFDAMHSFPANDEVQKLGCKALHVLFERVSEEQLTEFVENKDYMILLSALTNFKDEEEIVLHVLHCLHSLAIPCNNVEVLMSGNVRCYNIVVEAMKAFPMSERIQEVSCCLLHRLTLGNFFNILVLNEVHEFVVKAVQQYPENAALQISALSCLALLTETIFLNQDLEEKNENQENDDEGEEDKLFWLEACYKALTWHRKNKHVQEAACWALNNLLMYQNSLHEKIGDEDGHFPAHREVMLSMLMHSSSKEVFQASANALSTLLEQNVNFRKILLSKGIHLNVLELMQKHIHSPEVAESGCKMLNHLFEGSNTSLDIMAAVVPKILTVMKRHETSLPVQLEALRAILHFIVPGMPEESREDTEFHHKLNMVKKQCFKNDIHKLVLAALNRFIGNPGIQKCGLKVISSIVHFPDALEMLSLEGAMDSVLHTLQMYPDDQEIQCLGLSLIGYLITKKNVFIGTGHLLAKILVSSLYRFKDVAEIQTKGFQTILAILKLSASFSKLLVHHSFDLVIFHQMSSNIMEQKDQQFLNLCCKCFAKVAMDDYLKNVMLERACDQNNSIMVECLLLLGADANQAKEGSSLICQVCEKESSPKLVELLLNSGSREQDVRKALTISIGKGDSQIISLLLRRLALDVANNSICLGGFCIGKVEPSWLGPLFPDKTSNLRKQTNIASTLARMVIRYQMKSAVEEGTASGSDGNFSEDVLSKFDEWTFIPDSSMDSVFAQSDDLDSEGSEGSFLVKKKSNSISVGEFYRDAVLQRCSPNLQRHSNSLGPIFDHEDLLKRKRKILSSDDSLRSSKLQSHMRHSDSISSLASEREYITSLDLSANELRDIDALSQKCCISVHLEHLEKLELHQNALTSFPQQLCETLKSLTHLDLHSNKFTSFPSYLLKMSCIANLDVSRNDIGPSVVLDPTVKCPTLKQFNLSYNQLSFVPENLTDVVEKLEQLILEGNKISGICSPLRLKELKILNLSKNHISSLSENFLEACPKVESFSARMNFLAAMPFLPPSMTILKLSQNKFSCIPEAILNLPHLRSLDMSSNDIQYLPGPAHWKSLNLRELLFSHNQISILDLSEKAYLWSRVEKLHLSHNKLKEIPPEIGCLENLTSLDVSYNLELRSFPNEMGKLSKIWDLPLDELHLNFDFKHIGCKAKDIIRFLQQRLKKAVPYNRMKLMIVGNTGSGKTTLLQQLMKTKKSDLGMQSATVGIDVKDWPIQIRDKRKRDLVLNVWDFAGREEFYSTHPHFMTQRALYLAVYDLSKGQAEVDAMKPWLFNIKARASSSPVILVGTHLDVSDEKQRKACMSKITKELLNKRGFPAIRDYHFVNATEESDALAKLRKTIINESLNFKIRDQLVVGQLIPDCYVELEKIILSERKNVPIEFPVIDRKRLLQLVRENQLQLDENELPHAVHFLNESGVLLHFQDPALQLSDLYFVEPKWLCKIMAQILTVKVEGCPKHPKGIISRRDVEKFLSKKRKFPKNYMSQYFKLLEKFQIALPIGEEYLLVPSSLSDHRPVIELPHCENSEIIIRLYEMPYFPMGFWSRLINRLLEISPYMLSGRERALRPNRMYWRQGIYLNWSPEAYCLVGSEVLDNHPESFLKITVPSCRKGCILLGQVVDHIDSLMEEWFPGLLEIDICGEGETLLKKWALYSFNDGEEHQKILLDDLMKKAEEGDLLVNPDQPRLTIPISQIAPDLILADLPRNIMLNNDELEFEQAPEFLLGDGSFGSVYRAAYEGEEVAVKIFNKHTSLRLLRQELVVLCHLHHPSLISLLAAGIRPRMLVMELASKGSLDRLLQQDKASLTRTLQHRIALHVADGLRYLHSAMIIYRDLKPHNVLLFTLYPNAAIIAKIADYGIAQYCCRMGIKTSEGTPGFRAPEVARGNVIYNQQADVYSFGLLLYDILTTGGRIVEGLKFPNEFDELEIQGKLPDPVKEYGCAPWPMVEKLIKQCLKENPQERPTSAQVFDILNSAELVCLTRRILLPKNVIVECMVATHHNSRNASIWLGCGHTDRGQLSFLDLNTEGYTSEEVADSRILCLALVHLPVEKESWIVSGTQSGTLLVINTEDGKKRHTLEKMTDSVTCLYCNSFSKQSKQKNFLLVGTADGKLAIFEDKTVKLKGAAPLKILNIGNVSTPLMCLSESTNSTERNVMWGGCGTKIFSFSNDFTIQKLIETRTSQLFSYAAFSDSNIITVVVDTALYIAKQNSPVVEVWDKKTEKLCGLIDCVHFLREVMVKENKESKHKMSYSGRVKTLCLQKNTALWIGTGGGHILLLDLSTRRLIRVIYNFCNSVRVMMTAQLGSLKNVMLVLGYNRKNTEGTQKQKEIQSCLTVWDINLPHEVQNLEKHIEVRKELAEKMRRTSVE
Experiment: LRRK2 degradation assay, HiBit-tagged wildtype LRRK2 expressed from plasmid in HEK293 cells (Nano-Glo Dual-Luciferase)
Type: cell-based
Conditions: HiBit-tagged wildtype LRRK2 in HEK293 cells, 24 hours; read-out: **WT Dmax (%)

Below, 5 compounds whose answers are already recorded.
CC1(Oc2ccc3n[nH]c(-c4cc(N5CC(OC6CCN(CC7CCN(c8ccc9c(c8)C(=O)N(C8CCC(=O)NC8=O)C9=O)CC7)CC6)C5)ncn4)c3c2)CC1 (centres unmarked) ... 50 to 70%
CC1(Oc2ccc3[nH]nc(-c4ccnc(N5CCC(CN6CCC(F)(CN7CCN(c8ccc9c(c8)C(=O)N(C8CCC(=O)NC8=O)C9=O)CC7)CC6)CC5)c4)c3c2)CC1 (centres unmarked) ... 50 to 70%
CC1(Oc2ccc3[nH]nc(-c4ccnc(N5CCC(CC6CCN(C(=O)C7CCN(c8ccc9c(c8)C(=O)N(C8CCC(=O)NC8=O)C9=O)CC7)CC6)CC5)c4)c3c2)CC1 (centres unmarked) ... 50 to 70%
C[C@H]1CN(c2cc(-c3[nH]nc4ccc(OC5(C)CC5)cc34)ncn2)CCN1CCC1(F)CCN(CC2CCN(c3ccc4c(c3)CN(C3CCC(=O)NC3=O)C4=O)CC2)CC1 (some centres unmarked) ... ≥ 70%
C[C@H]1CN(c2cc(-c3n[nH]c4ccc(OC5(C)CC5)cc34)ncn2)CCN1C[C@@H]1CCN(CC2CCN(c3ccc4c(c3)C(=O)N(C3CCC(=O)NC3=O)C4=O)CC2)C1 (some centres unmarked) ... 50 to 70%

Query block: Bench note: what Dmax did CC1(Oc2ccc3n[nH]c(-c4cc(N5CCN(CC6(F)CCN(C(=O)C7CN(c8ccc9c(c8)C(=O)N(C8CCC(=O)NC8=O)C9=O)C7)CC6)CC5)ncn4)c3c2)CC1 (centres unmarked) show?
Result block: 50 to 70%

Query block: Using the record for C[C@H]1CN(c2cc(-c3n[nH]c4ccc(OC5(C)CC5)cc34)ncn2)CCN1CCN1CCN(CC2CCN(c3ccc4c(c3)C(=O)N(C3CCC(=O)NC3=O)C4=O)CC2)CC1 (some centres unmarked) , report its Dmax.
Result block: ≥ 70%

Query block: # lookup: Dmax of CC1(Oc2ccc3[nH]nc(-c4cc(N5C[C@@H]6[C@H](CN7CCN(CC8CCN(c9ccc%10c(c9)C(=O)N(C9CCC(=O)NC9=O)C%10=O)CC8)CC7)[C@@H]6C5)ncn4)c3c2)CC1 (some centres unmarked)
Result block: 50 to 70%

Query block: Could you tell me which Dmax is on file for CC1(Oc2ccc3[nH]nc(-c4cc(N5CCO[C@@H](CN6CCC(OC7CCN(c8ccc9c(c8)C(=O)N(C8CCC(=O)NC8=O)C9=O)CC7)CC6)C5)ncn4)c3c2)CC1 (some centres unmarked) ?
Result block: 50 to 70%

Query block: Which measured Dmax value corresponds to C[C@H]1CN(c2cc(-c3n[nH]c4cc(F)c(OC5(C)CC5)cc34)ncn2)CCN1CC1CCN(CC2CCN(c3ccc4c(c3)C(=O)N(C3CCC(=O)NC3=O)C4=O)CC2)CC1 (some centres unmarked) ?
Result block: 50 to 70%

Query block: What does the record list as Dmax for C[C@H]1CN(c2cc(-c3[nH]nc4ccc(OC5(C)CC5)cc34)ncn2)CCN1CC1CCN(CC2CCN(c3cccc4c3C(=O)N(C3CCC(=O)NC3=O)C4=O)CC2)CC1 (some centres unmarked) ?
Result block: ≥ 70%

Query block: Suppose we examine the compound CC1(Oc2ccc3[nH]nc(-c4cc(N5CCC(CN6CC(CN7CCN(c8ccc9c(c8)C(=O)N(C8CCC(=O)NC8=O)C9=O)CC7)C6)CC5)ncn4)c3c2)CC1 (centres unmarked) ; what Dmax value has been reported?
Result block: 50 to 70%

Query block: Look up Dmax: CC1(Oc2ccc3[nH]nc(-c4ccnc(N5CCOC6(CN(CC7CCN(CC8CCN(c9ccc%10c(c9)C(=O)N(C9CCC(=O)NC9=O)C%10=O)CC8)CC7)C6)C5)c4)c3c2)CC1 (centres unmarked)
Result block: 50 to 70%

Query block: Name the reported Dmax value associated with the compound CC1(Oc2ccc3[nH]nc(-c4cc(N5CCN(C[C@H]6CC(=O)N(CC7CCN(c8ccc9c(c8)C(=O)N(C8CCC(=O)NC8=O)C9=O)CC7)C6)CC5)ncn4)c3c2)CC1 (single isomer, unassigned)
Result block: 50 to 70%
